system: Pnc1 WT or mutant; experiment: Steady-state kinetic parameters of Pnc1 mutants, enzyme-coupled assay; format: biochemical, S. cerevisiae; details: substrate nicotinamide, pH 7.5

# molecule, value-prefix, kcat [s⁻¹]
measured = [
    ("D51N (protein, UniProt P53184 1-216, looked up, variant D51N) Nicotinamidase: MKTLIVVDMQNDFISPLGSLTVPKGEELINPISDLMQDADRDWHRIVVTRNWHPSRHISFAKNHKDKEPYSTYTYHSPRPGDDSTQEGILWPVHCVKNTWGSQLVDQIMDQVVTKHIKIVDKGFLTDREYYSAFHDIWNFHKTDMNKYLEKHHTDEVYIVGVALEYCVKATAISAAELGYKTTVLLDYTRPISDDPEVINKVKEELKAHNINVVDK", "=", 0.064),
    ("D8N (protein, UniProt P53184 1-216, looked up, variant D8N) Nicotinamidase: MKTLIVVNMQNDFISPLGSLTVPKGEELINPISDLMQDADRDWHRIVVTRDWHPSRHISFAKNHKDKEPYSTYTYHSPRPGDDSTQEGILWPVHCVKNTWGSQLVDQIMDQVVTKHIKIVDKGFLTDREYYSAFHDIWNFHKTDMNKYLEKHHTDEVYIVGVALEYCVKATAISAAELGYKTTVLLDYTRPISDDPEVINKVKEELKAHNINVVDK", "=", 0.0006),
    ("C167A (protein, UniProt P53184 1-216, looked up, variant C167A) Nicotinamidase: MKTLIVVDMQNDFISPLGSLTVPKGEELINPISDLMQDADRDWHRIVVTRDWHPSRHISFAKNHKDKEPYSTYTYHSPRPGDDSTQEGILWPVHCVKNTWGSQLVDQIMDQVVTKHIKIVDKGFLTDREYYSAFHDIWNFHKTDMNKYLEKHHTDEVYIVGVALEYAVKATAISAAELGYKTTVLLDYTRPISDDPEVINKVKEELKAHNINVVDK", "<", 0.0005),
]
